Test Summary: Short-term stability in spiked pooled human plasma (bench-top, 4 °C, 56 °C)
Condition Notes: validation standard ULOV
Kindly supply the reported Short-time stability (24h, 4°C, without daylight) Accuracy [%] values for the records listed here.
Give bare numbers, in %.

| Compound | Value Unit | Meas Value |
| --- | --- | --- |
| Cc1ccc(NC(=O)c2ccc(CN3CCN(C)CC3)cc2)cc1Nc1nccc(-c2cccnc2)n1 | % | 94.2 |

Fill in Short-time stability (24h, 4°C, without daylight) Accuracy [%] for each of the 6 compounds listed.
1. CCN1CCN(Cc2ccc(Nc3ncc(F)c(-c4cc(F)c5nc(C)n(C(C)C)c5c4)n3)nc2)CC1
2. CNC(=O)c1ccc(N2C(=S)N(c3cnc(C#N)c(C(F)(F)F)c3)C(=O)C23CCC3)cc1F [Apalutamide]
3. CCC1=C[C@@H]2CN(C1)Cc1c([nH]c3ccccc13)[C@@](C(=O)OC)(c1cc3c(cc1OC)N(C)[C@H]1[C@@](O)(C(=O)OC)[C@H](OC(C)=O)[C@]4(CC)C=CCN5CC[C@]31[C@@H]54)C2
4. COc1cc2c(Nc3ccc(Br)cc3F)ncnc2cc1OCC1CCN(C)CC1
5. O=C(Nc1cnn2ccc(N3CCC[C@@H]3c3cc(F)ccc3F)nc12)N1CC[C@H](O)C1
6. CC(=O)Nc1cccc(-n2c(=O)n(C3CC3)c(=O)c3c(Nc4ccc(I)cc4F)n(C)c(=O)c(C)c32)c1

1: 94.4; 2: 84.2; 3: 91.1; 4: 88.8; 5: 98.3; 6: 108.2
